# System: SF-268 CNS
# test details: NCI tumour cell line growth inhibition, 48 h
Where a SMILES comes first, the peptide text is derived from it.
Item-by-item account of TGI
recorded endpoint: TGI

# compound, observed measurement
data = [
    ("O=C1C=C(Nc2ccc(Br)cc2)c2ccccc2C1=O", "27.6 µM"),
    ("C=CCc1cccc2cc(C(=O)NC3CCCCC3)c(=N)oc12", "41.2 µM"),
    ("Cc1c2c(n(C)c1C)C(=O)C1C(C2=O)C2(C)c3ccccc3C1(C)c1ccccc12 (configuration not stated)", "> 100 µM"),
    ("CCC(C)C(NC(=O)C(NC(=O)C(CC(N)=O)NC(=O)CN)C(C)O)C(=O)NC(C(=O)NC(C)C(=O)NC(C(=O)NC(CCC(=O)O)C(=O)NC(CC(C)C)C(=O)NC(CC(=O)O)C(=O)NC(C(=O)NC(Cc1ccc(O)cc1)C(=O)N1CCCC1C(=O)O)C(C)O)C(C)C)C(C)C (configuration not stated) (H-GNTIVAVELDTYP-OH; configuration not given here)", "> 50 µM"),
    ("COC(=O)[C@@]12CN(C)[C@@H](C(C)(C)C)N1C(=O)OC2c1ccccc1 (some centres not stated)", "> 100 µM"),
    ("CCOC(=O)/C(C#N)=C\\C=C(\\Sc1nc2ccccc2s1)c1ccc(Cl)cc1", "> 100 µM"),
    ("CC(C)N(C(C)C)[PH+]1O[PH+](N(C(C)C)C(C)C)O[PH+](N(C(C)C)C(C)C)O[PH+](N(C(C)C)C(C)C)O1.[C-]#[O+].[C-]#[O+].[C-]#[O+].[C-]#[O+].[C-]#[O+].[C-]#[O+].[C-]#[O+].[C-]#[O+].[Mo].[Mo] (configuration not stated)", "> 100 µM"),
    ("COc1ccc(C(NS(=O)(=O)c2ccc(C)cc2)c2c(C(CBr)OC)c3ccccc3n2S(=O)(=O)c2ccccc2)cc1OC (configuration not stated)", "> 100 µM"),
    ("CCc1n[nH]c(=O)n1O", "> 100 µM"),
    ("Cc1ccc(C2=Nc3c(N)nc(N)nc3NC(c3cccc(Nc4ccnc5cc(C(F)(F)F)ccc45)c3)C2)cc1 (configuration not stated)", "4.19 µM"),
    ("COC1=CC(=O)c2c(cc(COP(N)(=O)N(CCBr)CCBr)n2C)C1=O (configuration not stated)", "1.8 µM"),
    ("NNC(=O)c1ccccc1Nc1nc(-c2cccs2)nc2ccc(Br)cc12", "> 100 µM"),
    ("O=C(CN1CCN(c2cccc(Cl)c2)CC1)N1CCc2c([nH]c3ccccc23)C1c1cccnc1 (configuration not stated)", "> 100 µM"),
    ("O=C1C(Cl)C2(CC(/C=C/c3cccs3)=NN2c2cccc(S(=O)(=O)O)c2)N1c1nc2ccccc2s1 (configuration not stated)", "> 100 µM"),
    ("CCC(=O)OC1=C(c2ccccc2)Sc2ccc(Cl)cc2-n2cccc21", "> 10 µM"),
    ("CC(=O)Oc1cc(C(C)C)c(OCCN(C)C)cc1C", "> 100 µM"),
    ("Cc1cccc(C)c1NC(=O)C(=O)C(C#N)c1ccccc1 (configuration not stated)", "> 100 µM"),
]

----------
Item-by-item account of TGI
# Test system: IGROV1 ovarian
# test details: NCI tumour cell line growth inhibition, 48 h

# compound, measurement target, qual, TGI / µM
measured = [
    ("ONCCCn1cnc2c(NC3CC3)ncnc21", "IGROV1 ovarian", ">", 100),
    ("Cn1cc(-c2csc(-c3c[nH]c4ccccc34)n2)c2cnccc21", "IGROV1 ovarian", "=", 3.55),
    ("COc1cc(OC)c(/C=C/c2cc[n+](C)c3ccccc23)c(OC)c1", "IGROV1 ovarian", "=", 25.9),
    ("COc1cc(C2CC(c3cccc(Nc4ccncc4)c3)=NN2c2ccccc2)cc(OC)c1OC (stereo not given)", "IGROV1 ovarian", "=", 3.61),
    ("COC(=O)/C=C\\[C@H]1[C@H](C)N1S(=O)(=O)c1ccc(C)cc1 (stereo not given in full)", "IGROV1 ovarian", ">", 100),
    ("CCSc1n/c(=C\\c2ccc(N(C)C)cc2)c2nnnn12", "IGROV1 ovarian", ">", 100),
    ("Cc1cc(=O)n2nnc3c4ccccc4ccc3n12", "IGROV1 ovarian", "=", 4.52),
    ("CCOC(=O)[C@@H]1[C@@H]2NC(=O)N[C@@]1(C)Oc1ccccc12", "IGROV1 ovarian", ">", 100),
    ("OC(CC(CC(O)(C(F)(F)F)C(F)(F)F)=NN=C(CC(O)(C(F)(F)F)C(F)(F)F)CC(O)(C(F)(F)F)C(F)(F)F)(C(F)(F)F)C(F)(F)F", "IGROV1 ovarian", ">", 10),
    ("CC1(C)Oc2ccccc2OC1O (stereo not given)", "IGROV1 ovarian", ">", 100),
]

----------
# System: BT-549 breast
# test details: NCI tumour cell line growth inhibition, 48 h
Item-by-item account of TGI
recorded endpoint: TGI

# compound, recorded endpoint, observed measurement
rows = [
    ("C=C1CC2(CCOc3ccc(Cl)cc32)OC1=O (configuration not stated)", "TGI", "2.75 µM"),
    ("N#CC1CCCC2SC(F)(F)C(F)(F)C12 (configuration not stated)", "TGI", "> 100 µM"),
    ("C=CCc1cccc2cc(C(=O)NC3CCCCC3)c(=N)oc12", "TGI", "> 100 µM"),
    ("COc1ccc(C2SC(N)=Nc3c2c(C)nn3C(=O)Cc2ccccc2)cc1 (configuration not stated)", "TGI", "> 100 µM"),
    ("Nc1nc2cc(O)ccc2n2cc3c(F)cccc3c12", "TGI", "> 100 µM"),
    ("Cc1cc(=O)n2nnc3c4ccccc4ccc3n12", "TGI", "21.1 µM"),
    ("CC(=O)N1CCC(Nc2ncc3cc(Oc4ccc(F)cc4F)c(=O)n(C)c3n2)CC1", "TGI", "> 25 µM"),
    ("COc1ccc(C(=S)N(C)NC(=O)CC(=O)NN(C)C(=S)c2ccc(OC)cc2)cc1", "TGI", "> 100 µM"),
    ("O=c1ccccc(-c2ccc(Br)cc2)c1O", "TGI", "54 µM"),
    ("OCCN(CCO)c1ccc2c(-c3ccccc3)cc(N(CCO)CCO)nc2n1", "TGI", "> 100 µM"),
    ("Nc1nc(Cl)c(N=Nc2ccc(Cl)cc2)c(NCC2(CO)CCC(CCc3ccccc3)C2)n1 (configuration not stated)", "TGI", "23.4 µM"),
    ("O=c1oc2ccc(Cl)cc2c2ccccc12", "TGI", "37 µM"),
]

----------
# Tested on: IGROV1 ovarian
# test details: NCI tumour cell line growth inhibition, 48 h

# compound, TGI
rows = [
    ("S=c1[nH]nc(-c2ccccc2)n1/N=C\\c1ccc(-c2ccc(Cl)cc2)o1", "> 100 µM"),
    ("Nn1c(SCC(=O)O)nc2ccccc2c1=O", "> 100 µM"),
    ("N#CNCC(COCc1ccccc1)c1ccccc1 (stereo unspecified)", "> 100 µM"),
    ("COc1cc(/C=C/C(=O)c2ccccc2)cc(OC)c1OC", "14.2 µM"),
    ("COc1ccc2c(c1)[n+](=O)c(C(=O)CC(=O)C(=O)Nc1cccc(Cl)c1C)c(C)n2[O-]", "> 100 µM"),
    ("NNC(=O)c1ccccc1Nc1nc(-c2cccs2)nc2ccc(Br)cc12", "> 100 µM"),
]

----------
# Test system: A498 renal
# test details: NCI tumour cell line growth inhibition, 48 h

# compound, measurement target, qual, TGI (µM)
rows = [
    ("Cc1cc(=O)[nH]c(S(=O)(=O)NC(=S)Nc2ccc(Cl)cc2)n1", "A498 renal", ">", 100),
    ("COc1ccc(/C=C2\\COc3ccc(O)c(O)c3C2=O)cc1", "A498 renal", "=", 5.55),
    ("N#CNCC(COCc1ccccc1)c1ccccc1 (stereo not given)", "A498 renal", ">", 100),
    ("COc1ccc(C2SC(N)=Nc3c2c(C)nn3C(=O)Cc2ccccc2)cc1 (stereo not given)", "A498 renal", ">", 100),
    ("Cc1ccc(C2CC(c3cccc([N+](=O)[O-])c3)=Nc3ccccc3S2)cc1 (stereo not given)", "A498 renal", ">", 100),
    ("O=[N+]([O-])/C(C(Cl)=C(Cl)Cl)=C(/Br)SCc1ccccc1", "A498 renal", "=", 15.2),
    ("CCN=c1nc2sc3c(c2c(NC(=S)NCC)s1)CCN(N1CCc2c(sc4nc(=NCC)sc(NC(=S)NCC)c24)C1)C3", "A498 renal", ">", 100),
    ("COC[C@@H]1[C@H]2OC(C)(C)O[C@H]2C(=O)N1C(=O)c1ccc(OC)cc1", "A498 renal", ">", 100),
    ("CNCCCNc1nc2ccccc2c2c(=O)c3cc(F)ccc3sc12", "A498 renal", "=", 2.7),
    ("Cc1c2c(n(C)c1C)C(=O)C1C(C2=O)C2(C)c3ccccc3C1(C)c1ccccc12 (stereo not given)", "A498 renal", ">", 100),
    ("CCC1OC(=O)CC(O)C(C)C(OC2OC(C)C(O)C(N(C)C)C2O)C(CC=O)CC(C)C(=O)/C=C/C2(C)OC2C1C (stereo not given)", "A498 renal", "=", 94.3),
    ("C[C@@H](O)CCC(=O)c1ccoc1", "A498 renal", ">", 100),
    ("COc1ccc(C(NS(=O)(=O)c2ccc(C)cc2)c2c(C(CBr)OC)c3ccccc3n2S(=O)(=O)c2ccccc2)cc1OC (stereo not given)", "A498 renal", ">", 100),
    ("C[CH2][Sn]([CH2]C)([O]C(=O)c1c(F)cccc1F)[O][Sn]([CH2]C)([CH2]C)[O]C(=O)c1c(F)cccc1F", "A498 renal", "=", 28.3),
    ("S=C(Nc1ccccc1)c1ccc(CN2CCCCC2)s1", "A498 renal", "=", 37.4),
    ("O=C1C2c3[nH]c4ccccc4c3C3CCCCC3C2C(=O)N1c1ccccc1 (stereo not given)", "A498 renal", ">", 100),
    ("COc1ccc(OC)c(C#N)c1C#N (tested in a mixture with another compound)", "A498 renal", ">", 100),
    ("CCOC(=O)N1CCN(P(=O)(Nc2ccc3nc(NC(=O)OC)[nH]c3c2)Oc2ccccc2)CC1 (stereo not given)", "A498 renal", ">", 100),
    ("C[CH2][Pb]([CH2]C)([CH2]C)[O]C(=O)COC", "A498 renal", "=", 2.29),
    ("CC/C=C/C(CC)C/C(C)=C\\[C@]1(CC)C[C@H](CC)[C@H](CC(=O)O)OO1 (stereo not given in full)", "A498 renal", "=", 3.07),
]
